assay: Metabolic stability in rat liver microsomes assessed as parent compound remaining at […] after 10 mins; format: ADME, microsome; conditions: read-out: Stability
Assay Readout: remaining at 10 min (%)

Consider the reported remaining at 10 min for these molecules:
Cc1cn(-c2cccc3ccccc23)cc1C(=O)N1CCC(CO)CC1 | 18
Cc1nc(-c2cccc3ccccc23)sc1C(=O)N1CCC(O)CC1 | 34
Cc1sc(-c2cccc3ccccc23)cc1C(=O)N1CCC(CO)CC1 | 23

P. Cc1nc(-c2cccc3ccccc23)sc1C(=O)N(C)CCO
Q. Cc1nc(-c2cccc3ccccc23)sc1C(=O)N1CCCCC1
R. Cc1nn(-c2cccc3ccccc23)cc1C(=O)N1CCC(CO)CC1
Query: Put the items in sequence by remaining at 10 min, from largest down. Please list each label once, in the requested order.
Result: R, P, Q
(R: 51%, P: 22%, Q: 1%)

A. Cc1nn(-c2cccc3ccccc23)nc1C(=O)N1CCC(CO)CC1
B. Cc1[nH]c(-c2cccc3ccccc23)cc1C(=O)N1CCC(CO)CC1
C. Cc1nc(-c2cccc3ccccc23)sc1C(=O)N(C)CCc1cccnc1
Query: Put the items in sequence by remaining at 10 min, from largest down. Please list each label once, in the requested order.
Result: B, A, C

a. Cc1nc(-c2cccc3ccccc23)oc1C(=O)N1CCC(CO)CC1
b. Cn1nc(-c2cccc3ccccc23)cc1C(=O)N1CCC(CO)CC1
Query: Min remaining at 10 min? a | b // respond with label for picked entry
Result: a
(a: 24%, b: 37%)
